- Tested on: S. aureus ATCC 13709
- TEST PROTOCOL: MIC, S. aureus ATCC 13709
- Assay type: cell-based
- STATED CONDITIONS: Staphylococcus aureus, ATCC13709, Table 15; R2 is joined to R4; read-out: SA MIC
Each entry below carries its reported MIC.
OBSERVABLE: MIC

SMILES NOTATION	TEST VALUE
CNc1cc(F)cc2c1[nH]c1nc3nc(c12)N[C@@H](CN)COCCCNC(=O)CSc1ncc(cn1)O3	2 µg/mL
CNc1cc(F)cc2c1[nH]c1nc3nc(c12)NCCCCCCNC(=O)c1cncc(c1)O3	≤ 0.5 µg/mL
CNc1cc(F)cc2c1[nH]c1nc3nc(c12)NCCCCNC(=O)CSc1ncc(cn1)O3	≤ 0.5 µg/mL
CNc1cc(F)cc2c1[nH]c1nc3nc(c12)NCCCCCCNC(=O)CSc1ncc(cn1)O3	≤ 0.5 µg/mL
